The reported measurements were obtained from PubChem BioAssay.

- assayRemarks: inhibitors of TNFa-induced NFkB p65 translocation, primary screen, imaging, HUVEC, MLSMR starter and 10KST1 sets (AID 438);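 further: compound added about 3h40 before a 20 min TNFalpha stimulation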
- conditionInfo: HUVEC TNFa-induced p65 nuclear translocation; measured here: nuclei count (cytotoxicity indicator), at 2.08 µM
Recorded cell count for the following molecules

CCOc1ccc(NC(=O)CSc2nnc(Cc3cccn3C)n2-c2ccc(OC)cc2)cc1 = 366
CC1(C)Cc2cccc(OCC(O)CN3CCN(c4ccccn4)CC3)c2O1 (stereo unspecified) = 518
Clc1ccc(Nc2ncnc3c2cnn3-c2ccccc2)cc1 = 703
CCOC(=O)C1CCCN(CCC(C)c2ccccc2)C1 (stereo unspecified) = 469
CS(=O)(=O)N(CC(=O)N1CCc2ccccc2C1)c1ccc2c(c1)OCO2 = 262
Cc1cc(C(=O)N2CCN(C/C=C/c3ccccc3)CC2)no1 = 242
Cc1cc(OCC(=O)N2CCCC2)cc(C)c1Cl = 633
CCOC(=O)c1cc(NC(=O)SCC(=O)O)c(C)nc1C = 762
COc1ccc(C2c3c(oc4ccccc4c3=O)C(=O)N2c2ccc(C)cn2)cc1OC (stereo unspecified) = 865
Cc1noc(C)c1CSc1nnc2n(-c3ccccc3)c(=O)c3ccccc3n12 = 342

Next:
Specify cell count for CCN(CC)C(=O)C1CCCN(c2ncnc3c2cnn3-c2ccc(Cl)cc2)C1 (stereo unspecified) and stop.
745

----------
- testedSystem: Voltage-gated potassium channel subunit beta-2 (Rattus norvegicus) (UniProt P62483)
- Sequence (P62483 whole entry, looked up): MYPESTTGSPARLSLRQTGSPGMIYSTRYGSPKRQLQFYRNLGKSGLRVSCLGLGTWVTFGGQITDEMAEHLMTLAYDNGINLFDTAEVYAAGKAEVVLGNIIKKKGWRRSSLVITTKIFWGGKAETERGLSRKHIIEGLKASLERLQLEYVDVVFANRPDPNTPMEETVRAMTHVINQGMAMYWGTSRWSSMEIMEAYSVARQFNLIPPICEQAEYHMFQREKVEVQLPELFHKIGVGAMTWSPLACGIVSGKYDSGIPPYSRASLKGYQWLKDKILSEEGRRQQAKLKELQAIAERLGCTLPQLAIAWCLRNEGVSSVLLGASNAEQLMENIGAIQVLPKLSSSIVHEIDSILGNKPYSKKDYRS
- assayRemarks: inhibitors of rat Kvbeta2 reductase activity – biochemical, NADPH fluorescence, primary screen (AID 622);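 further: slope of raw intensity against log time taken from 70 to 1610 s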
- conditionInfo: recombinant KvBeta, 4-cyanobenzaldehyde reduction, at 10 µM, stronger effect = higher value
Given measured fluorescence slope, output T if it is greater than or equal to -0.5 and F if not.

Recorded results for 8 compounds are shown here.
Cc1nc(NC2=NCN(CC3CCCO3)CN2)nc2ccccc12 (stereo not drawn) = F
Cc1nc2sc(C(c3ccccc3)N3CCN(c4ccccc4F)CC3)c(O)n2n1 (stereo not drawn) = T
CC(C)CNc1oc(-c2ccc(F)cc2)nc1C#N = F
CCCCCn1c(CN2CCN(c3cccc(Cl)c3)CC2)nc2c1c(=O)n(C)c(=O)n2C = T
O=C(NCC(=O)N1CCC(N2CCCCC2)CC1)C1CCCCC1 = T
O=C1C2CC=C(Cl)CC2C(=O)N1c1ncn[nH]1 (stereo not drawn) = T
Cc1csc(NC(=O)c2ccco2)n1 = T
c1ccc2c(c1)sc1nnnn12 = F

Given `CCc1c(C(=O)N2CCOCC2)csc1C` , state whether its fluorescence slope is at least -0.5.
T

Would you say `Cn1c(COc2ccc(Cl)cc2)nnc1SCC(=O)NC1CCCCC1` shows fluorescence slope at minimum -0.5?
F

Hi, just wondering whether `O=C(CCn1c(=O)oc2ccccc21)NCc1ccco1` shows fluorescence slope of -0.5 or higher.
F

Confirm if fluorescence slope reported for the compound `COc1ccc(OC)c(NC(=O)CS(=O)(=O)Cc2nc(-c3ccccc3C)oc2C)c1` is -0.5 or above.
F

Has `COc1cccc(-n2ccnc2SCC(=O)N2CCc3ccccc32)c1` a recorded fluorescence slope greater than or equal to -0.5?
F

Confirm if fluorescence slope reported for the compound `O=C(COc1ccccc1)N1CCN(c2ncnc3c2cnn3-c2ccccc2)CC1` is -0.5 or above.
F

I'd appreciate it if you could say whether `COc1ccc(NC(=O)CN(c2ccc(C(C)C)cc2)S(=O)(=O)c2c(C)noc2C)cc1OC` has fluorescence slope at least equal to -0.5.
F

fluorescence slope >= -0.5 for `O=C(Nc1sc2c(c1C(=O)NCc1ccco1)CCCC2)c1ccc2c(c1)OCO2` ?
F

Answer whether fluorescence slope of COC(=O)c1[nH]c2c(c1C)C(=O)CC(c1cc(OC)ccc1OC)C2 (stereo not drawn) is greater than or equal to -0.5.
F

Could you verify whether the entry CCN(CC)C(=O)C1CCCN(c2ncnc3c2cnn3-c2ccc(Cl)cc2)C1 (stereo not drawn) shows fluorescence slope of no less than -0.5?
F

In plain terms: is recorded fluorescence slope at least -0.5 for `NC(=O)c1c(NC(=O)CN2CCCC2)sc2c1CCCC2` ?
F

Test whether the compound O=C(NCC(=O)N(Cc1cccs1)C(C(=O)NC1CCCC1)c1ccncc1)c1ccco1 (stereo not drawn) records fluorescence slope of -0.5 or higher.
T

Evaluate `O=C(c1ccco1)N1CCN(S(=O)(=O)c2ccc3c(c2)CCN3C(=O)C2CCC2)CC1` : fluorescence slope at minimum -0.5?
T

----------
- testedSystem: Alpha-2C adrenergic receptor (Homo sapiens) (UniProt P18825)
- Sequence (P18825 whole entry, looked up): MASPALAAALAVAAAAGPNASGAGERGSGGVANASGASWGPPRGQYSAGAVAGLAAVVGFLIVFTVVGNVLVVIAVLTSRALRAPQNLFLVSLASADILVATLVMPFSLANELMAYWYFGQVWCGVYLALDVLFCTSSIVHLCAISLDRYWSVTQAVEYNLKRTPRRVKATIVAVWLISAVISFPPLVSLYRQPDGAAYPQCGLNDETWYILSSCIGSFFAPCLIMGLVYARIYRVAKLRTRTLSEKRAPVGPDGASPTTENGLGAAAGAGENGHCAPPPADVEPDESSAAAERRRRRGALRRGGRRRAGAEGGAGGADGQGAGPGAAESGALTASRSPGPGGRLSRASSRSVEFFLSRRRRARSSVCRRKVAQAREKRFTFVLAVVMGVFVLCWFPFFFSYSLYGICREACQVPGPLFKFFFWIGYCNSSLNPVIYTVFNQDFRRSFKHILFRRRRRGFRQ
- assayRemarks: compounds altering alpha2C-coupled GIRK flux – cell-based, HEK293 alpha2C/GIRK1/2, thallium flux, primary screen (AID 624);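 further: slope of fluorescence ratio to pre-addition baseline per second over 15 to 24 s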
- conditionInfo: thallium flux BTC fluorescence, at 10 µM, actives lie on both sides
assayEndpoint: slope
The answer should be written as a number, with no unit following it.

Some solved cases for reference:
CC1(C)CC(=O)C(C#N)=C(NCCCO)C1 = 0.00419
Cc1ccc(C(=O)N2CCN(C(=O)c3ccc(C)c(C)c3)C(C)C2)cc1C (stereo not drawn) = 0.00164
CCCC(=O)Nc1ccc2oc(-c3cccnc3)nc2c1 = 0.00331
CCN(CC(=O)NC1CCS(=O)(=O)C1)C(=O)C(c1ccccc1)c1ccccc1 (stereo not drawn) = 0.00562
O=C(NCC1CCCO1)C1c2ccccc2C(=O)N1C1CCCCCC1 (stereo not drawn) = 0.00613
CC1CCN(C(=O)CSc2nnc(Cc3cc(=O)[nH]c(=O)[nH]3)n2-c2ccc(Cl)cc2)CC1 = 0.00679

Report slope for `Cc1cc(NC(=O)CCCN2C(=O)c3cccnc3C2=O)no1`
0.00763

For the compound `CCn1c(SCC(=O)c2ccc(C)cc2)nnc1-c1ccoc1C` , give its reported slope.
0.00433

Indicate the recorded slope value for this compound: COc1cccc(NC(=O)C2CCCN2C(=O)Nc2cccc(F)c2)c1 (stereo not drawn)
0.00468

Look up and report measured slope for this entry: `CC1(C)CC(=O)c2sc(NS(C)(=O)=O)nc2C1`
0.00519

Retrieve slope measured for `Cn1c(-c2ccc(C(C)(C)C)cc2)n[nH]c1=S` and print it.
0.00619

Determine from records and report slope for `Cc1ccc(S(=O)(=O)NCCN2CCOCC2)cc1C`
0.00599

Please report the measured slope for `COCCN(Cc1cc2cccc(C)c2[nH]c1=O)C(=O)c1ccccc1`
0.00564

Please report slope for the following compound: `CC(C)(C)c1cc(CCC(=O)N2CCNCC2)c(C(C)(C)C)cc1O`
0.00515

Give reported slope value for `COc1ccc(CCNC(=O)C2=COCCO2)cc1`
0.00546

Return reported slope. Input compound: CC(=O)N1CCc2cc(Br)cc(S(=O)(=O)NCCCN3CCCC(C)C3)c21 (stereo not drawn)
0.00613

Tell me slope reported for `COc1ccc(C)cc1-n1c(N)c(C#N)c(C#N)c1-c1ccc(OC)c(OC)c1OC`
0.00611

Give the reported value of slope for this record: `Cc1cccc(NC(=O)c2ccccc2O)c1C`
0.00603

Note down slope recorded for `COc1cc(/C=N/n2cnnc2)ccc1OCC(=O)N1CCOCC1`
0.00585

Give the reported slope for this compound. `O=C(Nc1ccc(F)cc1)N(CCCN1CCOCC1)Cc1cc2cc3c(cc2[nH]c1=O)OCO3`
0.00497

----------
Collected inhibition values appear next to each entry.
- assayRemarks: endothelial E-selectin expression blockers – imaging, HUVEC, immunofluorescence, MLSMR starter and 10KST1 sets, primary screen (AID 487);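 further: signal is fraction of cell area covered by stained E-selectin grains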
- conditionInfo: HUVEC TNFalpha-induced E-selectin immunofluorescence imaging, at 2 µM; stronger effect = higher value
Activity calls are given as the source filed them.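 The calls were made as follows: active = visually confirmed hit in the image check and inhibition above 20%; inconclusive = visually confirmed hit but inhibition not above 20%; inactive = no visual hit in the image check.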

Some entries whose results are on file:
COc1nc(C)ccc1-c1noc(-c2ccncc2)n1 = -40% (inactive)
COc1ccccc1Cn1nnc2c(=O)[nH]c(C3CCN(C(=O)c4ccccc4Cl)CC3)nc21 = -5.4% (inactive)
Cc1ccc(S(=O)(=O)N2CCC(C(=O)NCCN3CCCCCC3)CC2)cc1 = -87.4% (inactive)
C=CCN(CC=C)C(=O)c1ccncc1 = -86.3% (inactive)
CC(C)C(OC(=O)c1ccco1)C(=O)NCc1ccccc1 (centres undefined) = -122% (inactive)
Cc1ccc(-n2c(Cn3cnc4ccccc43)nnc2SCC(=O)O)cc1 = -26.2% (inactive)
COc1ccc2nc(NC(=O)c3ccoc3C)sc2c1 = -75.7% (inactive)
O=C(c1ccccc1F)N1CCN(Cc2cccc(Cl)c2)CC1 = -3.6% (inactive)

Tell me measured inhibition for `Cc1cc(=O)n(-c2ccc3ccccc3n2)[nH]1` please.
-37.6% (inactive)

Note inhibition for the compound shown: CC(C)COC(=O)C1C2C=CC3(CN(C(C)c4ccc(Br)cc4)C(=O)C13)O2 (centres undefined)
-32.2% (inactive)

Give recorded inhibition. Cc1cc(C)nc(SCCS(=O)Cc2ccc(Cl)cc2)n1 (centres undefined)
32.1% (inactive)

Answer with reported inhibition of `CC1CCN(C(=O)CCNS(=O)(=O)c2ccccc2)CC1`
-149% (inactive)

Find the measured inhibition of COC(=O)C1=C(C)NC(C)=C(C(=O)OC)C1C1CC=CCC1 (centres undefined) and report it.
32.4% (inactive)

Answer with the recorded inhibition for the compound listed here: CC(C)Cn1c(CN2CCCCC2C)nc2c1c(=O)n(C)c(=O)n2C (centres undefined)
-25% (inactive)

Specify inhibition for `CC(C)(C)c1cc(CCC(=O)N2CCNCC2)c(C(C)(C)C)cc1O` and stop.
-57% (inactive)

Look up and state reported inhibition for `O=C(CSc1nnc(-c2ccncc2)n1-c1ccc(F)cc1)NC(=O)NCc1ccco1`
-65.7% (inactive)

Specify inhibition for `O=C(COc1ccccc1F)NC1CC1` and stop.
19.9% (inactive)

Give the reported inhibition for this compound. `O=S(=O)(c1ccc(-c2csc(-c3cccnc3)n2)cc1)N1CCCCC1`
-30.5% (inactive)

Provide measured inhibition value, entry: `C=CCNC(=O)c1cccc(Br)c1`
-24.7% (inactive)

Please indicate inhibition recorded for `CC(=O)c1cccc(NS(=O)(=O)c2ccc3c(c2)oc(=O)n3C)c1`
-52% (inactive)

In one line, give reported inhibition of the entry `CCSc1nnc(NC(=O)c2ccccn2)s1` .
21.4% (inactive)

Given `COc1cc2c(C#N)c(N3CCOCC3)nc(N)c2c(N)n1` , respond with its inhibition.
-22.5% (inactive)

Give the reported inhibition for this compound. `Cc1ccc(S(=O)(=O)NCCOC(=O)Nc2sc(=S)n(C)c2C)cc1`
15% (inactive)

Give inhibition for `COc1ccc(S(=O)(=O)CCC(=O)O)cc1`
-47.5% (inactive)
